experiment: Test on metabolic stability in human liver microsome; format: in vitro ADME; conditions: human liver microsomes, pH 7.4; human liver microsome 0.2 mg protein/ml, 37° C. 15 minutes, in vitro clearance by integration plot
Hi there, I'd appreciate the recorded CLint scaled for every entry that follows.
The response must be a number in mL/min/kg with no trailing unit.

Tell me the measured CLint scaled of "Cc1cc(OCc2ccc(C(=O)O)cc2)c(N(C[C@@H](C)CF)S(=O)(=O)c2ccccn2)cc1C" , please. 58

Also Cc1csc(S(=O)(=O)N(CC(C)F)c2cc(C)c(Cl)cc2OCc2ccc(C(=O)O)cc2)n1 (centres unmarked) ? 153

Also "C[C@H](F)CN(c1cc2c(cc1OCc1ccc(C(=O)O)cc1)CCC2)S(=O)(=O)c1cccnc1" ? 228

Also Cc1csc(S(=O)(=O)N(CC(C)F)c2cc3c(cc2OCc2ccc(C(=O)O)s2)CCC3)n1 (centres unmarked) ? 212

Also "C[C@@H](F)CN(c1cc2c(cc1OCc1ccc(C(=O)O)cc1)CCC2)S(=O)(=O)c1ccccn1" ? 244
